Origin of the recorded values: patent US12492173B2

Test system: Lolium rigidum
Measurement notes: Post-emergence herbicidal action, LOLRI
Assay type: in vivo
Experimental conditions: dosage 80 g/ha
Each record here notes measured herbicidal action LOLRI.

Compound	herbicidal action LOLRI [%]
CSCc1c(I)ccc(C(=O)Nc2nnnn2C)c1Cl [Example 1-362]	80
Cn1nnnc1NC(=O)c1ccc(C(F)(F)F)c(CSC2CC2)c1Cl [Example 1-302]	90
CCn1nnnc1NC(=O)c1ccc(C(F)(F)F)c(C[S+]([O-])CC)c1Cl (centres unmarked) [Example 2-300]	80
Cn1nnnc1NC(=O)c1ccc(C(F)(F)F)c(CSCC2CC2)c1Cl [Example 1-314]	90
Cn1nnnc1NC(=O)c1ccc(C(F)(F)F)c(C[S+]([O-])C2CC2)c1Cl (racemic) [Example 1-303]	90
CCn1nnnc1NC(=O)c1ccc(C(F)(F)F)c(CSCCOC)c1Cl [Example 2-305]	80
Cn1nnnc1NC(=O)c1ccc(C(F)(F)F)c(CS(=O)(=O)C2CC2)c1Cl [Example 1-304]	80
Cn1nnnc1NC(=O)c1ccc(I)c(C[S+](C)[O-])c1Cl (racemic) [Example 1-363]	80

---

Tested on: Alopecurus myosuroides
Measurement notes: Post-emergence herbicidal action, ALOMY
Type: in vivo
Set-up: key: % herbicidal action vs untreated; 100 = plants died, 0 = like control
Experimental conditions: comparative experiment, post-emergence, 5 g of a.i./ha
Each record here notes measured Herbicidal action against ALOMY.
Endpoint name: Herbicidal action against ALOMY

Compound	System tested	Endpoint name	Obs value
CSc1c(I)ccc(C(=O)Nc2nnnn2C)c1Cl [Example V-5, reference compound]	Alopecurus myosuroides	Herbicidal action against ALOMY	40
Cn1nnnc1NC(=O)c1ccc(C(F)(F)F)c(CS(C)(=O)=O)c1Cl	Alopecurus myosuroides	Herbicidal action against ALOMY	70
CCSCc1c(C(F)(F)F)ccc(C(=O)Nc2nnnn2C)c1Cl	Alopecurus myosuroides	Herbicidal action against ALOMY	70
CCSc1c(C(F)(F)F)ccc(C(=O)Nc2nnnn2C)c1Cl [Example V-4, reference compound]	Alopecurus myosuroides	Herbicidal action against ALOMY	40
CSCc1c(I)ccc(C(=O)Nc2nnnn2C)c1Cl	Alopecurus myosuroides	Herbicidal action against ALOMY	70

---

Tested on: Stellaria media
Measurement notes: Pre-emergence herbicidal action, STEME
Type: in vivo
Experimental conditions: dosage 320 g/ha, scored visually after 3 weeks vs untreated controls (100% = plants have died)
Each record here notes measured herbicidal activity STEME.
Endpoint name: herbicidal activity STEME (%)

Molecule	System tested	Obs value
CCn1nnnc1NC(=O)c1ccc(C(F)(F)F)c(C[S+]([O-])CC)c1Cl (stereo not drawn)	Stellaria media	100
Cn1nnnc1NC(=O)c1ccc(C(F)(F)F)c(CS(=O)(=O)CC2CC2)c1Cl	Stellaria media	100
Cc1c(C(=O)Nc2nnnn2C)ccc(C(F)(F)F)c1C[S+](C)[O-] (stereo not drawn)	Stellaria media	100
CSCc1c(I)ccc(C(=O)Nc2nnnn2C)c1Cl	Stellaria media	100
CCCn1nnnc1NC(=O)c1ccc(C(F)(F)F)c(CS(C)(=O)=O)c1OC	Stellaria media	100
CCn1nnnc1NC(=O)c1ccc(C(F)(F)F)c(CS(C)(=O)=O)c1Cl	Stellaria media	90
Cn1nnnc1NC(=O)c1ccc(C(F)(F)F)c(C[S+](C)[O-])c1Br (stereo not drawn)	Stellaria media	90
CCSCc1c(C(F)F)ccc(C(=O)Nc2nnnn2C)c1Cl	Stellaria media	100
Cn1nnnc1NC(=O)c1ccc(S(C)(=O)=O)c(CS(C)(=O)=O)c1Cl	Stellaria media	90
CCCn1nnnc1NC(=O)c1ccc(C(F)F)c(CS(C)(=O)=O)c1Cl	Stellaria media	100
CC[S+]([O-])Cc1c(C(F)(F)F)ccc(C(=O)Nc2nnnn2C)c1Br (racemic)	Stellaria media	100
Cn1nnnc1NC(=O)c1ccc(I)c(CS(C)(=O)=O)c1Cl	Stellaria media	100
Cn1nnnc1NC(=O)c1ccc(C(F)(F)F)c(CSCC(F)(F)F)c1Cl	Stellaria media	100
CSc1c(C(=O)Nc2nnnn2C)ccc(C(F)(F)F)c1CS(C)(=O)=O	Stellaria media	100
CCCn1nnnc1NC(=O)c1ccc(C(F)(F)F)c(C[S+](C)[O-])c1SC (stereo not drawn)	Stellaria media	100
CCn1nnnc1NC(=O)c1ccc(C(F)(F)F)c(C[S+](C)[O-])c1Br (stereo not drawn)	Stellaria media	90
Cc1ccc(C(=O)Nc2nnnn2C)c(Cl)c1CS(C)(=O)=O	Stellaria media	90
CCCn1nnnc1NC(=O)c1ccc(C(F)F)c(CSCC)c1Cl	Stellaria media	100

---

System: Matricaria inodora
Measurement notes: Post-emergence herbicidal action, MATIN
Format: in vivo
Set-up: key: % herbicidal action vs untreated; 100 = plants died, 0 = like control
Experimental conditions: post-emergence, dosage 80 g/ha

Compound	Result units	herbicidal action MATIN
Cn1nnnc1NC(=O)c1ccc(C(F)(F)F)c(C[S+](C)[O-])c1Cl (racemic)	%	100
CCSCc1c(C(F)(F)F)ccc(C(=O)Nc2nnnn2C)c1Br	%	90
CSCc1c(C(F)(F)F)ccc(C(=O)Nc2nnnn2C)c1Cl	%	100
Cn1nnnc1NC(=O)c1ccc(C(F)(F)F)c(C[S+]([O-])C2CC2)c1Cl (racemic)	%	100
CSCc1c(C(F)(F)F)ccc(C(=O)Nc2nnnn2C)c1Br	%	90
CCn1nnnc1NC(=O)c1ccc(C(F)(F)F)c(C[S+]([O-])CC)c1Br (centres unmarked)	%	100
CCSCc1c(C(F)(F)F)ccc(C(=O)Nc2nnnn2CC)c1Cl	%	100
CCn1nnnc1NC(=O)c1ccc(C(F)(F)F)c(C[S+](C)[O-])c1Br (centres unmarked)	%	90

---

Tested on: Matricaria inodora
Measurement notes: Post-emergence herbicidal action, MATIN
Assay type: in vivo
Set-up: key: % herbicidal action vs untreated; 100 = plants died, 0 = like control
Experimental conditions: post-emergence, dosage 80 g/ha
Endpoint name: herbicidal action MATIN

Molecule	Obs value
CSCc1c(I)ccc(C(=O)Nc2nnnn2C)c1Cl	100%
Cn1nnnc1NC(=O)c1ccc(C(F)(F)F)c(C[S+](C)[O-])c1Br (stereo not shown)	90%
CCn1nnnc1NC(=O)c1ccc(C(F)F)c(C[S+]([O-])CC)c1Cl (stereo not shown)	100%
CCn1nnnc1NC(=O)c1ccc(C(F)(F)F)c(CSC)c1Br	100%
CCSCc1c(C(F)(F)F)ccc(C(=O)Nc2nnnn2C)c1Cl	90%
CCCn1nnnc1NC(=O)c1ccc(C(F)(F)F)c(C[S+](C)[O-])c1SC (stereo not shown)	100%
CC[S+]([O-])Cc1c(C(F)(F)F)ccc(C(=O)Nc2nnnn2C)c1Br (racemic)	90%

---

Each record here notes measured herbicidal action ALOMY.
Test system: Alopecurus myosuroides
Measurement notes: Post-emergence herbicidal action, ALOMY
Format: in vivo
Set-up: key: % herbicidal action vs untreated; 100 = plants died, 0 = like control
Experimental conditions: Dosage 80 g/ha
Endpoint name: herbicidal action ALOMY

Molecule	Obs value
CCn1nnnc1NC(=O)c1ccc(I)c(C[S+](C)[O-])c1Cl (centres unmarked)	90
CCS(=O)(=O)Cc1c(C(F)F)ccc(C(=O)Nc2nnnn2C)c1Cl	90
CSCc1c(C(F)F)ccc(C(=O)Nc2nnnn2C)c1Cl	100
CCCn1nnnc1NC(=O)c1ccc(C(F)(F)F)c(CSCC(F)(F)F)c1Cl	100
CCn1nnnc1NC(=O)c1ccc(C)c(CSC)c1Cl	100
CCn1nnnc1NC(=O)c1ccc(S(C)(=O)=O)c(CSC)c1C	80
CCCn1nnnc1NC(=O)c1ccc(C(F)(F)F)c(CSC)c1Br	80
CCCn1nnnc1NC(=O)c1ccc(C(F)F)c(CSC)c1Cl	80
Cc1ccc(C(=O)Nc2nnnn2C)c(Cl)c1C[S+](C)[O-] (racemic)	80
COCC[S+]([O-])Cc1c(C(F)(F)F)ccc(C(=O)Nc2nnnn2C)c1Cl (racemic)	90
CCn1nnnc1NC(=O)c1ccc(C(F)(F)F)c(CS(C)(=O)=O)c1Cl	80

---

Each record here notes measured herbicidal action POLCO.
System: Polygonum convolvulus
Measurement notes: Post-emergence herbicidal action, POLCO
Assay type: in vivo
Experimental conditions: post-emergence, dosage 80 g/ha
Method: [table] 2. […] After the test plants have been left to stand in the greenhouse under optimal growth conditions for about 3 weeks, the action of the preparations is assessed visually in comparison to untreated controls (herbicidal action in percent (%): 100% activity=the plants have died, 0% activity=like control plants). […]
Endpoint name: herbicidal action POLCO (%)

Molecule	Endpoint name	Obs value
Cn1nnnc1NC(=O)c1ccc(C(F)(F)F)c(C[S+](C)[O-])c1Br (stereo not drawn)	herbicidal action POLCO	80
CCS(=O)(=O)Cc1c(C(F)(F)F)ccc(C(=O)Nc2nnnn2C)c1Br	herbicidal action POLCO	90
CCn1nnnc1NC(=O)c1ccc(C(F)(F)F)c(C[S+](C)[O-])c1Cl (stereo not drawn)	herbicidal action POLCO	90
Cn1nnnc1NC(=O)c1ccc(C(F)(F)F)c(C[S+]([O-])CC(F)(F)F)c1Cl (racemic)	herbicidal action POLCO	100
CCn1nnnc1NC(=O)c1ccc(C(F)F)c(CS(C)(=O)=O)c1Cl	herbicidal action POLCO	100
CCSCc1c(C(F)(F)F)ccc(C(=O)Nc2nnnn2CC)c1Cl	herbicidal action POLCO	90
CCSCc1c(C(F)F)ccc(C(=O)Nc2nnnn2C)c1Cl	herbicidal action POLCO	90
CCCn1nnnc1NC(=O)c1ccc(C(F)(F)F)c(C[S+](C)[O-])c1Br (stereo not drawn)	herbicidal action POLCO	80
CCSCc1c(C(F)F)ccc(C(=O)Nc2nnnn2CC)c1Cl	herbicidal action POLCO	100
CCCn1nnnc1NC(=O)c1ccc(C(F)(F)F)c(C[S+](C)[O-])c1SC (stereo not drawn)	herbicidal action POLCO	100
CCSCc1c(C(F)(F)F)ccc(C(=O)Nc2nnnn2C)c1Br	herbicidal action POLCO	90
CCn1nnnc1NC(=O)c1ccc(C(F)(F)F)c(CSC)c1Br	herbicidal action POLCO	90
